Each recorded value in this set is attributed to the Immune Epitope Database (IEDB).

# assay system: HLA-B*58:01
# run description: IEDB peptide-MHC binding, purified MHC/direct/fluorescence; filed as Kd, often an IC50 or EC50 that approximates it; bounds were set here for any values at or beyond the usual limits of such assays
# measurement setup: source organism: Bacillus anthracis
Reported Kd is given for each of the following sequences.

- ISGPIKHPL: ≥ 20 µM

Attention now turns to another entry.
Query: Param item = SQMPPQKIM ; retrieve measured Kd.
Result: ≥ 20 µM

----------
# assay system: HLA-A*02:01
# run description: IEDB peptide-MHC binding, cellular MHC/competitive/fluorescence; bounds were set here for any values at or beyond the usual limits of such assays
# measurement setup: source organism: Homo sapiens
Reported IC50 is given for each of the following sequences.
Provide only the numeric value, understood in nM.

• KMDASLGNLFA = 1110

Query: Param item = LLLDVPTAAV ; retrieve measured IC50.
Result: 530

----------
# assay system: HLA-B*44:02
# run description: IEDB peptide-MHC binding, purified MHC/direct/fluorescence; filed as Kd, often an IC50 or EC50 that approximates it; bounds were set here for any values at or beyond the usual limits of such assays
# measurement setup: source organism: Salmonella enterica
pKd: −log10 of the molar value.
readout name: pKd

Query: State its pKd on HLA-B*44:02: EEQTDPKTL
Result: ≤ 4.70

----------
Reported Kd is given for each of the following sequences.
# assay system: HLA-B*27:05
# run description: IEDB peptide-MHC binding, purified MHC/direct/fluorescence; filed as Kd, often an IC50 or EC50 that approximates it; bounds were set here for any values at or beyond the usual limits of such assays
# measurement setup: source organism: Camelpox virus M-96

- FTENGPWMY: ≥ 20 µM

Attention now turns to another entry.
Query: Param item = ITMVNSLTY ; retrieve measured Kd.
Result: ≥ 20 µM

----------
Reported Kd is given for each of the following sequences.
# assay system: HLA-B*40:01
# run description: IEDB peptide-MHC binding, purified MHC/competitive/radioactivity; filed as Kd, often an IC50 or EC50 that approximates it; bounds were set here for any values at or beyond the usual limits of such assays
# measurement setup: source organism: Dengue virus 4 Philippines/H241/1956
Provide only the numeric value, understood in nM.

* KEFASGRKSI | 111
* GEFRLRGEQR | 1400

Attention now turns to another entry.
Query: Param item = QENPYRTWAY ; retrieve measured Kd.
Result: 1600

----------
# assay system: HLA-B*15:01
# run description: IEDB peptide-MHC binding, purified MHC/direct/fluorescence; filed as Kd, often an IC50 or EC50 that approximates it; bounds were set here for any values at or beyond the usual limits of such assays
# measurement setup: source organism: Escherichia coli O157:H7
pKd: −log10 of the molar value.
readout name: pKd

Query: Param item = PILPKLFIL ; retrieve measured pKd.
Result: ≤ 4.70

----------
# assay system: HLA-A*68:02
# run description: IEDB peptide-MHC binding, purified MHC/competitive/radioactivity; filed as Kd, often an IC50 or EC50 that approximates it; bounds were set here for any values at or beyond the usual limits of such assays
# measurement setup: source organism: Homo sapiens
readout name: Kd (µM)
Provide only the numeric value, understood in µM.

Answered examples (3):
* ELNDRFANYI | 0.0116
* RLFTKVKPLL | 13.6
* DLNGAQIKL | 2.98

Attention now turns to another entry.
Query: Param item = ELEKTRRKL ; retrieve measured Kd.
Result: 6.99

----------
Reported pKd is given for each of the following sequences.
# assay system: HLA-A*23:01
# run description: IEDB peptide-MHC binding, purified MHC/competitive/radioactivity; filed as Kd, often an IC50 or EC50 that approximates it; bounds were set here for any values at or beyond the usual limits of such assays
# measurement setup: source organism: SARS coronavirus Tor2
Field pKd (float): negative decimal logarithm of the concentration in molar.

* MWLSYFVASF | 9.59
* AWEILKFLI | 5.44

Query: Param item = FWITAIYVF ; retrieve measured pKd.
Result: 6.79

Query: Param item = LTALRLCAY ; retrieve measured pKd.
Result: 5.15

----------
# assay system: HLA-B*07:02
# run description: IEDB peptide-MHC binding, purified MHC/competitive/radioactivity; filed as Kd, often an IC50 or EC50 that approximates it; bounds were set here for any values at or beyond the usual limits of such assays
# measurement setup: source organism: Dengue virus 3 Martinique/1243/1999
readout name: Kd (nM)
Provide only the numeric value, understood in nM.

* TPRSMPGTRR | 1140
* TPSMTMRCVG | 48
* SPSPTVEESR | 3710

Attention now turns to another entry.
Query: Param item = TPTWNRKELL ; retrieve measured Kd.
Result: 18.2

----------
# assay system: HLA-A*24:03
# run description: IEDB peptide-MHC binding, purified MHC/direct/fluorescence; filed as Kd, often an IC50 or EC50 that approximates it; bounds were set here for any values at or beyond the usual limits of such assays
# measurement setup: source organism: Corynebacterium glutamicum
readout name: Kd

Query: Param item = YELLRYNEY ; retrieve measured Kd.
Result: ≥ 20 µM

----------
# assay system: HLA-A*03:01
# run description: IEDB peptide-MHC binding, purified MHC/competitive/radioactivity; filed as Kd, often an IC50 or EC50 that approximates it; bounds were set here for any values at or beyond the usual limits of such assays
# measurement setup: source organism: Mammarenavirus brazilense
readout name: Kd (µM)
Provide only the numeric value, understood in µM.

• LFFTTTLFLH = 0.771

Attention now turns to another entry.
Query: Param item = FLLNISYLCH ; retrieve measured Kd.
Result: 11.8

----------
# assay system: HLA-A*11:01
# run description: IEDB peptide-MHC binding, purified MHC/direct/fluorescence; filed as Kd, often an IC50 or EC50 that approximates it; bounds were set here for any values at or beyond the usual limits of such assays
# measurement setup: source organism: Influenza A virus (A/Goose/Hong Kong/385.3/2000(H5N1))
readout name: Kd

Query: State its Kd on HLA-A*11:01: IIAARNIVR
Result: ≥ 20 µM

----------
# assay system: HLA-A*02:06
# run description: IEDB peptide-MHC binding, purified MHC/competitive/radioactivity; filed as Kd, often an IC50 or EC50 that approximates it; bounds were set here for any values at or beyond the usual limits of such assays
# measurement setup: source organism: HIV-1 M:B_ARV2/SF2
readout name: pKd
Field pKd (float): negative decimal logarithm of the concentration in molar.

Query: Param item = VIYQYMDDL ; retrieve measured pKd.
Result: 5.11

----------
# assay system: HLA-A*03:01
# run description: IEDB peptide-MHC binding, purified MHC/direct/fluorescence; filed as Kd, often an IC50 or EC50 that approximates it; bounds were set here for any values at or beyond the usual limits of such assays
# measurement setup: source organism: Campylobacter jejuni RM1221
readout name: Kd

Query: Param item = KSNEKNMDF ; retrieve measured Kd.
Result: ≥ 20 µM

----------
# assay system: HLA-A*68:01
# run description: IEDB peptide-MHC binding, purified MHC/competitive/radioactivity; filed as Kd, often an IC50 or EC50 that approximates it; bounds were set here for any values at or beyond the usual limits of such assays
# measurement setup: source organism: Dengue virus 3 Martinique/1243/1999
readout name: Kd (µM)
Provide only the numeric value, understood in µM.

Answered examples (3):
• ETKGVERLKR = 0.0142
• VTFKNAHAK = 0.0584
• NIPTAIQQVR = 0.0724

Query: Param item = GTILIKVEYK ; retrieve measured Kd.
Result: 0.0382

----------
# assay system: HLA-A*31:01
# run description: IEDB peptide-MHC binding, purified MHC/direct/fluorescence; filed as Kd, often an IC50 or EC50 that approximates it; bounds were set here for any values at or beyond the usual limits of such assays
# measurement setup: source organism: Influenza A virus (A/Hong Kong/485/1997(H5N1))
readout name: Kd

Query: Param item = QMRDVLGTF ; retrieve measured Kd.
Result: ≥ 20 µM

----------
# assay system: HLA-A*69:01
# run description: IEDB peptide-MHC binding, purified MHC/direct/fluorescence; filed as Kd, often an IC50 or EC50 that approximates it; bounds were set here for any values at or beyond the usual limits of such assays
# measurement setup: source organism: Yersinia pestis
readout name: pKd
Field pKd (float): negative decimal logarithm of the concentration in molar.

Query: Param item = FLEQGGFKA ; retrieve measured pKd.
Result: 5.70

----------
# assay system: HLA-A*02:03
# run description: IEDB peptide-MHC binding, purified MHC/competitive/radioactivity; filed as Kd, often an IC50 or EC50 that approximates it; bounds were set here for any values at or beyond the usual limits of such assays
# measurement setup: source organism: SARS coronavirus Tor2
Reported pKd is given for each of the following sequences.
Field pKd (float): negative decimal logarithm of the concentration in molar.

• LLVTLAILTA = 7.37
• ILASFSAST = 8.28
• AQMGTLLIA = 8.81

Query: Param item = ALVSGTATA ; retrieve measured pKd.
Result: 8.09
